Test system: c-Src
PROTOCOL_TEXT: phosphorylation enrichment, bacterial display (enrichment ratio); higher = better substrate or ligand; peptides without Tyr show the background
Rule: phosphorylation enrichment of 0.6 or more gives criterion met; anything lower gives criterion not met.

# count of solved cases: 10
INSERT INTO results (chain_sequence, subject_of_test, group) VALUES
  ('DTSKMYIPHTD [EXPH5_Y782]', 'c-Src', 'criterion not met'),
  ('SHNELYFEAAE [VANGL1_Y344_E347A_YF]', 'c-Src', 'criterion not met'),
  ('KGTAGYTTVAV [RET_Y752_R749T]', 'c-Src', 'criterion not met'),
  ('CFSSEYHFVGG [CTSC_Y345_Y340C_YF]', 'c-Src', 'criterion met'),
  ('SFLSFYTSHVQ [NEFL_Y443_P440L_YF]', 'c-Src', 'criterion not met'),
  ('TAALWYIFSHT [ENG_Y612_YF]', 'c-Src', 'criterion met'),
  ('SSTASYFKAPG [RFX2_Y108_E110K]', 'c-Src', 'criterion not met'),
  ('CSRRLYQLTKL [AR_Y858_F857L]', 'c-Src', 'criterion met'),
  ('SLLKDYSPQLQ [OTC_Y345_T343K]', 'c-Src', 'criterion not met'),
  ('VNKLVYENING [FRS2_Y306]', 'c-Src', 'criterion met');

Check this sequence for phosphorylation enrichment at or above 0.6: NTADYYDLYGG [PTPN11_Y63_G60A] criterion met

Is reported phosphorylation enrichment greater than or equal to 0.6 here: PVEAAYQKVVA [HBB_Y131_Q128E] criterion not met

Is it the case that VKRNRYKDILP [PTPN12_Y64_K61R] has phosphorylation enrichment reaching or exceeding 0.6? criterion met

====

SUBJECT_OF_TEST: EPHB1 (UniProt P54762)
Sequence (P54762 whole entry, looked up): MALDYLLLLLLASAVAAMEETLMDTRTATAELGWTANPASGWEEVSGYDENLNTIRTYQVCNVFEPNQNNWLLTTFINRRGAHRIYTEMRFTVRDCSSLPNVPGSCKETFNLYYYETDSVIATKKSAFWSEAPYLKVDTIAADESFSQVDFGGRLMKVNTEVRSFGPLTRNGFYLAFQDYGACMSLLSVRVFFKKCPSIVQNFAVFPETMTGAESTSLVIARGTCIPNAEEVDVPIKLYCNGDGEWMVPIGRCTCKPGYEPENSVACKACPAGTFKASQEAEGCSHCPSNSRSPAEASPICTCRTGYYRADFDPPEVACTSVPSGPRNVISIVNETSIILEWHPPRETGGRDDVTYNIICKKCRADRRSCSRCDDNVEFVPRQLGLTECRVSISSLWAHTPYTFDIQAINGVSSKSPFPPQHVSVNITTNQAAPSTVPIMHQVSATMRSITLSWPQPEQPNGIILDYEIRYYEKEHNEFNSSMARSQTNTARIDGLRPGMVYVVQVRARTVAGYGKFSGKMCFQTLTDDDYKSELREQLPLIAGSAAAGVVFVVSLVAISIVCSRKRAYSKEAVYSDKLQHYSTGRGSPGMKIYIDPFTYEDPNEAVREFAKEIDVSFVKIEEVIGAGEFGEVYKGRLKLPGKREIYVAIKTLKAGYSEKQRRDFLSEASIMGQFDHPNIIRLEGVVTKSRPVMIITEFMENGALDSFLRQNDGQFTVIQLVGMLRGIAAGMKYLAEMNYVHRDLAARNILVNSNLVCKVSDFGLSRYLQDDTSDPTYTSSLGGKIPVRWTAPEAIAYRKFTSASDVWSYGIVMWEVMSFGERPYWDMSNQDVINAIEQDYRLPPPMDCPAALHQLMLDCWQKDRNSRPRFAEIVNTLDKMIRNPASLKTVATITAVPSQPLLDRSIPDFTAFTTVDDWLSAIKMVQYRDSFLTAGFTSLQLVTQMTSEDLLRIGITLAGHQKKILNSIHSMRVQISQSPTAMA
PROTOCOL_TEXT: phosphorylation enrichment, bacterial display (enrichment ratio); higher = better substrate or ligand; peptides without Tyr show the background
OBSERVABLE: phosphorylation enrichment
Give bare numbers.

INSERT INTO results (chain_sequence, subject_of_test, reported_measurement) VALUES
  ('PQAVTYATVKH [LILRB4_Y360_K362T]', 'EPHB1 (UniProt P54762)', 0.735);

Batch request: phosphorylation enrichment for each of the following sequences.
1. IGEGTSGVVYK [CDK2_Y15_Y15S]
2. RDMNAYISPSP [MMAA_Y207_R209S]
3. LRVHSYKSMQH [DRC7_Y516_P521H]

1: 0.374; 2: 0.553; 3: 0.911

====

SUBJECT_OF_TEST: Grb2 SH2 (UniProt P62993)
Sequence (P62993 whole entry, looked up): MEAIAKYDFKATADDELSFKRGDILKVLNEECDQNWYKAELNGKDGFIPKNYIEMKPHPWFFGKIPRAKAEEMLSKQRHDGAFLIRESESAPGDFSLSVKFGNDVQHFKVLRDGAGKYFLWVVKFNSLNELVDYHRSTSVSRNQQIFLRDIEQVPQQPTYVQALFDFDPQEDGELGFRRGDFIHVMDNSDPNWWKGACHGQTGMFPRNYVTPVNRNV
PROTOCOL_TEXT: SH2 binding enrichment of the phosphorylated peptide, bacterial display (enrichment ratio); higher = better substrate or ligand; peptides without Tyr show the background
OBSERVABLE: SH2 binding enrichment
Answers are plain numbers.

INSERT INTO results (chain_sequence, reported_measurement) VALUES
  ('RSRSPYSSRHS [CDK13_Y415]', 0.793),
  ('ISDDKYGRIRL [ARCN1_Y310]', 0.806),
  ('LLEGKYEWQEV [CDKN1B_Y74_P69L]', 0.801),
  ('EWLRRHLENGK [HLA-A_Y195_Y195H]', 0.823),
  ('YPKAHYHWLVL [APTX_Y214_R213H]', 1.6);

Parameters: items (list). Returns: SH2 binding enrichment for each item.
1. HRGCLYLAIEF [TEK_Y899_Y897C_YF]
2. VLTSKYHGGGG [HBA1_Y141_R142H]

[0.686, 0.835]
